- conditions: 313.15 K; 20000 kPa; Liquid
reportedProperty: mass density (kg/m3)

1) CCOC(C)=O [ethyl acetate] = 895.4
2) CCCOC(C)=O [propyl ethanoate] = 883.5
3) CCCCCOC(C)=O [pentyl ethanoate] = 872.8
4) CCCCOC(C)=O [butyl ethanoate] = 877.2

* * *

- conditions: 323.15 K; 100 kPa; Liquid
reportedProperty: mass density (kg/m3)

1) CCCCCOC(C)=O [pentyl ethanoate] = 847.1
2) CCCCOC(C)=O [butyl ethanoate] = 849.7
3) CCOC(C)=O [ethyl acetate] = 862.7
4) CCCOC(C)=O [propyl ethanoate] = 853.6
